procedure_summary: caspase-8 TRAIL sensitization, hit retest, confirmation, cell-based, NB7+caspase-8, with/without TRAIL, luminescence panel (AID 651596)
test_context: NB7 neuroblastoma + caspase-8, without TRAIL, luminescence viability, without TRAIL, mean of runs, at 10 µM
Consider the reported activity of an entry and match it to a band in group A: < 60%; group B: ≥ 60% and < 70%; group C: ≥ 70%

> print(dat)
                                    molecule    class
 1  Cc1ccc(N=Cc2c(C)[nH]n(-c3nc4ccccc4[nH]3)c2=O)cc1  group C
 2  Cc1cc(C)c(C)c(S(=O)(=O)N2CCN(c3ncnc4ccccc34)CC2)c1C  group A
 3  CCOC(=O)c1ccc(NC(=O)c2nc[nH]c2C(=O)NCCNC(=O)c2[nH]cnc2C(=O)Nc2ccc(C(=O)OCC)cc2)cc1  group C
 4         CCOC(=O)c1sc2nc(-c3cccnc3)ccc2c1N  group A
 5  Cc1ccc(-c2cc3onc(-c4ccccc4)c3c(=O)n2C)cc1  group C
 6          Cc1cnc(NC(=O)c2ccc3c(c2)OCCO3)s1  group C
 7  O=C(CCl)N1c2ccccc2SCC1c1ccccc1 (stereo not given)  group C
 8         Cc1ccccc1Nc1nn2c(=O)c3ccccc3nc2s1  group B
 9       CCOc1cccc(C(=O)Nc2ccc3[nH]ncc3c2)c1  group B
10            Clc1nc(Cl)c2ncn(-c3ccccc3)c2n1  group A
11  O=C(C[C@H]1C[C@H](C(=O)N2CCCCC2)[C@@]2(CCc3ccccc3)c3[nH]c4ccc(Cl)cc4c3CCN2C1=O)NCCC1=CCCCC1  group C
12  COc1ccc(/C(N)=N/OC(=O)c2ccc3c(c2)OCO3)cc1OC  group C
13  CCOc1ccc(OCC)c(NC(=O)C2CCN(c3nn4c(=O)cc(C)nc4s3)CC2)c1  group C
14  Cc1cccc2sc(NNC(=O)c3ccc(S(=O)(=O)N4CCCC(C)C4)cc3)nc12 (stereo not given)  group A
15           Cc1ccc2nc(NC(=O)c3ccccc3F)sc2c1  group B
16         CCCCN=C1NN=C(c2ccc3c(c2)OCCO3)CS1  group A
17  O=C(N/N=C/c1ccccc1[N+](=O)[O-])c1ccc2c(c1)OCCO2  group C
18              Cc1ccnc(NC(=O)c2ccc(Br)s2)c1  group A
19  Cc1nn(-c2ccccc2)c2nc(N)c(C#N)c(-c3ccc(F)cc3)c12  group A
20  O=C(Nc1nc2ccccc2[nH]1)c1ccc([N+](=O)[O-])cc1  group A
21  Cc1ccc2nc(-c3ccc(NC(=O)COC(=O)c4ccco4)cc3)sc2c1  group C
22        COC(=O)c1ccc(-c2nc3cc(N)ccc3o2)cc1  group A
23  CCC1CCCCN1c1ccc([N+](=O)[O-])cc1/C=N/NC(=O)Cn1c2ccccc2c(=O)c2ccccc21 (stereo not given)  group B
24    O=C(c1cc(-c2ccc3c(c2)OCO3)on1)N1CCCCC1  group A
25  Fc1ccccc1-c1ccc(/C=N/Nc2nc3ccccc3[nH]2)o1  group C
26             CC(C)c1ccc(C(=O)NC2=NCCS2)cc1  group B
27         O=C(Nc1ccc2[nH]ccc2c1)c1ccc(F)cc1  group C
28         Cc1cccc(NC(=O)c2cnc3ccccn3c2=O)c1  group B
29  CC(C)c1ccc(/C=c2\sc3n(c2=O)C(N)=C(C#N)C(c2ccc(C(C)C)cc2)C=3C(N)=O)cc1 (stereo not given)  group C
30            C(=N\Nc1nncc2ccccc12)/c1ccccn1  group C
31  C=CCOn1c(C)c(C(C)=O)c2c3no[n+]([O-])c3ccc21  group B
32          Cc1cccc2nc(=S)n(C(=O)c3ccco3)n12  group A
33                Nc1ccccc1C=C1Cc2ccccc2C1=O  group A
34        O=C(N/N=C/c1ccccc1)c1ccc2c(c1)OCO2  group A
35  Cc1cc2sc3ccc(C#CC4(O)CCCCC4)cc3c(=O)c2cc1C  group C
36       C#CCSc1nnc(-c2sc(-c3ccccc3)nc2C)n1C  group C
37           CCc1ccc(/C=N/NC(=O)c2ccccn2)cc1  group C
38  CCC(C)c1ccc2oc(-c3ccc(NC(=O)Cn4cnc5c(=O)n(C)c(=O)n(C)c54)cc3)nc2c1 (stereo not given)  group B
39        O=C(N/N=C/c1cccnc1)c1ccc2c(c1)OCO2  group A
40  Cc1cc2nc(-c3ccc(SCC(=O)Nc4nccs4)nc3)[nH]c2cc1C  group A

* * *

procedure_summary: inhibitors of PAF-induced NFkB signaling in CF airway cells, dose response, cell-based, uHTS hits, panel, cytotoxicity readout (AID 624344)
test_context: CF bronchial epithelial cells, PAF-induced NFkB reporter inhibition, with PAF, run 2; at 79 µM (top of the series) unless noted
Recorded inhibition by entry
measured_parameter: inhibition (%)

> print(dat)
                                   compound  recorded.measurement
1  CCN1CCN(Cc2ccc(NC(=O)c3ccc(C)c(NC(=O)C(=O)c4c[nH]c5ccccc45)c3)cc2C(F)(F)F)CC1                   112
2  CC(=O)NC(CC(C)C)C(=O)NC(Cc1ccccc1)C(=O)CCl (stereo not given)                   104
3      Nc1ncnc(NCc2ccc(F)cc2)c1[N+](=O)[O-]                  98.9
4  O=C(COC(=O)c1c2c(nc3ccccc13)CCN(Cc1ccccc1)C2)Nc1c(F)cccc1F                    74
5  COc1ccc(N(Cc2cc(=O)[nH]c3ccccc23)C(=O)CCl)cc1                  88.4

* * *

# key: entry, value: inhibition
procedure_summary: HIF-1a luciferase reporter signal reduction – MiaPaCa-2 cells, single concentration, counter-screen for HIF-2a inhibitor project, confirmation (AID 651589)
test_context: MiaPaCa-2 HIF-1a luciferase reporter, desferoxamine, overnight; at 18.8 µM; stronger effect = higher value
The other results are listed elsewhere or left out. Calls of active or inactive are those of the source.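 The calls were made as follows: active = mean inhibition of the reporter signal across four replicates at the single tested dose of 50% or more; inactive = the rest.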
measured_parameter: inhibition

> print(dat)
                                   compound  recorded.measurement
1  CCN1CCC(O)(/C=C/c2ccc(C)cc2)C(C(=O)/C=C/c2ccc(C)cc2)C1 (stereo not given)         105% (active)
2  Cc1c(CCC(=O)O)c(=O)oc2c(C)c(OCc3ccccc3Cl)ccc12      46.2% (inactive)
3  O=C(/C(=C/c1cccc(Cl)c1)c1nc2ccccc2[nH]1)c1ccccc1         105% (active)
4  CCC(C)(C)c1ccc(Oc2ccc(NC(=O)COC(=O)C3=COCCO3)cc2)cc1        92.9% (active)
5     OCCN1CCN(C(=S)c2ccc(-c3ccccc3)cc2)CC1        69.1% (active)

* * *

procedure_summary: PMA/ionomycin-induced NF-kB reporter inhibitors, Jurkat retest, confirmation, T-cell NF-kB inhibitor project, cell-based, luminescence, single concentration (AID 435020);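 also: plate controls were PMA/ionomycin stimulated DMSO wells for no effect and unstimulated DMSO wells for full effect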
test_context: Jurkat NF-kB luciferase, 16 h, at 4 µM, stronger effect = higher value
This is one part of the list.
Decision: inhibition compared against 20%; not below it gives Met, below it gives Not met.

> print(dat)
                                    compound    class
 1             CCc1ccc2oc(-c3ccc(N)cc3)nc2c1  Not met
 2  Cc1cccc(N(C)C(=O)c2cc3c(=O)[nH]c4ccc(C)cc4c3s2)c1  Not met
 3           Cc1ccc(N/C=C/C(=O)c2ccccc2)cc1C  Not met
 4            CC(C)(C)c1ccc(Oc2ccc(N)cc2)cc1  Not met
 5       c1ccc2[nH]c(-c3nc4ccccc4[nH]3)nc2c1  Not met
 6            Cc1nnc(N/N=C/c2ccccn2)[nH]c1=O      Met
 7  CCOc1[nH]n(-c2ccc(Cl)cc2)c(=O)c1C=Nc1ccc(O)cc1  Not met
 8          COc1ccc(N=C(C)c2sc3ccccc3c2O)cc1  Not met
 9  COc1ccc(C)c(Cn2c(-c3nonc3N)nc3ccccc32)c1      Met
10    NC(N)=N/N=C/c1ccc(OCc2ccc(Cl)cc2Cl)cc1  Not met
11                   Cc1ccc(SCCSc2ncccn2)cc1  Not met
12  COc1ccc(NC(=O)/C(Cl)=C(/Cl)S(=O)Cc2ccc(C)cc2)cn1 (configuration not stated)      Met
13         Fc1ccccc1/C=N/Nc1cc(N2CCCCC2)ncn1  Not met
14   CCN(CC)c1ccc(/C=N/NC(=O)c2cnccn2)c(O)c1  Not met
15  O=C(/C=C/c1ccc([N+](=O)[O-])o1)NNC(=O)c1ccc(F)cc1      Met
16  Cc1ccc(S(=O)(=O)C2(S(=O)(=O)c3ccc(C)cc3)CCCC2)cc1      Met
17  Cc1ccc(-n2ncc3c2CC(C)(C)CC3NC(=O)Cc2c(C)noc2C)cc1 (configuration not stated)  Not met
18         CC(C)CC(=O)N/C(N)=N/c1nc2ccccc2s1  Not met
19        Cc1ccc(O)c(NC(=O)COc2cc(C)ccc2C)c1  Not met
20  O=C(O)c1ccc(N/N=C/c2cn(-c3ccccc3)nc2-c2cccs2)cc1  Not met
21  Cn1c(-c2ccc(C(F)(F)F)cc2)cc2onc(-c3ccccc3)c2c1=O  Not met
22  CCOc1ccc(NC(=O)c2ccc(NC(=O)COC(=O)c3ccc(NC(=O)CC#N)cc3)cc2)cc1  Not met
23            CCCOc1ccc(C(=O)NCCc2ccccc2)cc1  Not met
24  Cc1c(/C=N\NC(=O)c2cc3ccccc3o2)c2ccccc2n1C  Not met
25    COc1ccc(Nc2cc(C)nc(-n3nc(C)cc3C)n2)cc1      Met
26        COc1ccc(-n2nnnc2-c2nc3ccccc3s2)cc1  Not met
27            Oc1cccc(/C=N/Nc2ccc(Cl)nn2)c1O  Not met
28  Cc1cc(=O)oc2cc(OCC3CC(c4ccccc4Cl)=NO3)ccc12 (configuration not stated)      Met
29       Cc1cccc(/C(N)=N/OC(=O)c2ccccc2Cl)c1  Not met
30  Cc1cccc(NS(=O)(=O)c2ccc(-c3cnc(C4CC4)o3)cc2)c1      Met
31  CCn1c(/C=C/c2ccc([N+](=O)[O-])o2)nc2ccccc2c1=O      Met
32    CC(=O)Nc1ccc(Nc2c3ccccc3nc3ccccc23)cc1      Met
33       NC(=O)c1c(NC(=O)c2ccccc2)sc2c1CCCC2  Not met
34  COc1ccc(-n2ncc3c(N4CCc5ccccc54)ncnc32)cc1  Not met
35          C=CCn1c(C)cc(C2=NNC(=NCC)SC2)c1C      Met
36  O=C(Nc1ccc2sc3ccccc3c(=O)c2c1)c1ccccc1Cl  Not met
37         COc1cc(SC)ccc1C(=O)NCCOc1ccccc1Cl  Not met
38           COc1ccc(Nc2nc(-c3ccccc3)cs2)cc1  Not met
39  COc1ccc2cc1Oc1ccc(cc1)C[C@H]1c3cc(c(OC)cc3CCN1C)Oc1c(O)c(OC)cc3c1[C@H](C2)N(C)CC3  Not met
40              Cc1csc(SCC(=O)Nc2sccc2C#N)n1  Not met
41  O=C(NCC#CCSc1nnc(-c2cccc3ccccc23)o1)c1cccs1      Met
42            Clc1cccc(Cl)c1OCCOCCNCc1ccccc1      Met
43  Cn1c(-c2ccc(F)cc2)cc2onc(-c3ccccc3Cl)c2c1=O  Not met
44         CCCCCCCCn1c2c(c(=N)c3c1CCC3)CCCC2      Met
45  COc1cc(/C=N/O)ccc1OCc1ccc([N+](=O)[O-])cc1  Not met
46  O=c1oc2ccccc2cc1-c1cn(-c2ccccc2)c(=S)[nH]1      Met
47            Cc1ccc(NC(=O)c2csc3c2CCCC3)cc1  Not met
